Biological target: recombinant HDAC1 (Homo sapiens)
Sequence (Q13547 whole entry): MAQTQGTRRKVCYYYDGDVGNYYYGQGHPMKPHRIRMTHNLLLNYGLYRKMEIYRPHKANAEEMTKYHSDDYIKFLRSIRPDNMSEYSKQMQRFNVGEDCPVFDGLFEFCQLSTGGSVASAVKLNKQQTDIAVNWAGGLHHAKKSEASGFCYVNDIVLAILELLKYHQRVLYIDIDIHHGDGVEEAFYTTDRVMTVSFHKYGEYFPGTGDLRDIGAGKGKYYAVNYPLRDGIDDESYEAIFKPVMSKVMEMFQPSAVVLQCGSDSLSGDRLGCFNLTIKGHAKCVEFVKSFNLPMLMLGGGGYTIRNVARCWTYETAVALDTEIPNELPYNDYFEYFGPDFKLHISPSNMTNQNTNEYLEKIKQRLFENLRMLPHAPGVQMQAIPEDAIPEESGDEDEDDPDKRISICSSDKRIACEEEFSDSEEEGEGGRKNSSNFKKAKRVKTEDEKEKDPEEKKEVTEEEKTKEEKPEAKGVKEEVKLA
Experiment: Recombinant HDAC activity assay
Type: biochemical
Conditions: 2 h, read-out: % HDAC activity, Class I HDACs, 1
Counter-ions that a name gives are not always drawn.
Simple rule here: remaining activity at 50 µM less than 70% is 1, otherwise -1.

(Q) Field: below-cutoff. Rule: recorded remaining activity at 50 µM strictly less than 70%. Subject: COc1ccc2cc3[n+](cc2c1OC)CCc1cc2c(cc1-3)OCO2 [Berberine HCl, berberine hydrochloride]
(A) 1

(Q) Request: O=c1cc(-c2ccc(O)cc2)oc2cc(O)cc(O)c12 [Apigenin]
(A) -1

(Q) Request: O=c1cc(-c2ccc(O)c(O)c2)oc2cc(O)cc(O)c12 [Luteolin]
(A) 1

(Q) Request: O=c1c(O)c(-c2ccc(O)c(O)c2)oc2cc(O)cc(O)c12 [Quercetin dihydrate]
(A) -1

(Q) Request: O=C1Nc2ccccc2/C1=C1/Nc2ccccc2C1=O [Indirubin]
(A) 1

(Q) Request: Cc1cc(O)c2c(c1)C(=O)c1cc(O)cc(O)c1C2=O [Emodin]
(A) 1

(Q) Request: Cc1cc2c(C(C)C)c(O)c(O)c(C=O)c2c(O)c1-c1c(C)cc2c(C(C)C)c(O)c(O)c(C=O)c2c1O [Gossypol]
(A) 1

(Q) Request: O=C(O)[C@H]1O[C@@H](Oc2cc3oc(-c4ccccc4)cc(=O)c3c(O)c2O)[C@H](O)[C@@H](O)[C@@H]1O [Baicalin]
(A) -1

(Q) Request: O=C1c2c(O)cc(O)cc2O[C@H](c2cc(O)c(O)c(O)c2)[C@H]1O [Dihydromyricetin]
(A) -1

(Q) Request: O=c1c(O)c(-c2ccc(O)cc2)oc2cc(O)cc(O)c12 [Kaempferol]
(A) -1

* * *

Target: recombinant HDAC10 (Homo sapiens, UniProt Q969S8)
Sequence (Q969S8 whole entry): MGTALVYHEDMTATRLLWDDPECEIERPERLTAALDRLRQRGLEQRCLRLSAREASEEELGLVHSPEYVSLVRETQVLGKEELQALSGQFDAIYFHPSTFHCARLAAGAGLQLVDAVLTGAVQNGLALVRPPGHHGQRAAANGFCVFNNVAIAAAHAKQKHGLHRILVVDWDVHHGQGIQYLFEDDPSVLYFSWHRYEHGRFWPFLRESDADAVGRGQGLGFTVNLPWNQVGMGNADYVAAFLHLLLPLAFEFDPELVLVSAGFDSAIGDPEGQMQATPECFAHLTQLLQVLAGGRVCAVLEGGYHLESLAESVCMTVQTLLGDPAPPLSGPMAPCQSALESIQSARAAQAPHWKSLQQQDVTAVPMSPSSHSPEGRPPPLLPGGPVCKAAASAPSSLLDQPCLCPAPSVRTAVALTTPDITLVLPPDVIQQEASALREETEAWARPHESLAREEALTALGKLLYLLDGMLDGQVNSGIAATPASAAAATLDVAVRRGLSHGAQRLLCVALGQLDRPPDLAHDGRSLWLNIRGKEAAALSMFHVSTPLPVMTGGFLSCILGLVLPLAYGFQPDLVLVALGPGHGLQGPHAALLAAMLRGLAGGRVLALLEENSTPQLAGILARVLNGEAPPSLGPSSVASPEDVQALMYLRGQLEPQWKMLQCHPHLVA
Experiment: Recombinant HDAC activity assay
Assay type: biochemical
Conditions: 2 h, read-out: % HDAC activity, Class IIb HDACs, 10
Where a name gives a salt, the structure may show the parent alone.
Simple rule here: remaining activity at 50 µM less than 60% is 1.0, otherwise 0.0.

(Q) Field: below-cutoff. Rule: recorded remaining activity at 50 µM strictly less than 60%. Subject: O=c1c(O)c(-c2ccc(O)cc2)oc2cc(O)cc(O)c12 [Kaempferol]
(A) 0.0

(Q) Request: O=C(O)[C@H]1O[C@@H](Oc2cc3oc(-c4ccccc4)cc(=O)c3c(O)c2O)[C@H](O)[C@@H](O)[C@@H]1O [Baicalin]
(A) 0.0

(Q) Request: O=c1cc(-c2ccc(O)c(O)c2)oc2cc(O)cc(O)c12 [Luteolin]
(A) 1.0

(Q) Request: O=c1c(O)c(-c2ccc(O)c(O)c2)oc2cc(O)cc(O)c12 [Quercetin dihydrate]
(A) 0.0

(Q) Request: COc1ccc2cc3[n+](cc2c1OC)CCc1cc2c(cc1-3)OCO2 [Berberine HCl, berberine hydrochloride]
(A) 1.0

(Q) Request: Cc1cc(O)c2c(c1)C(=O)c1cc(O)cc(O)c1C2=O [Emodin]
(A) 1.0

(Q) Request: Cc1cc2c(C(C)C)c(O)c(O)c(C=O)c2c(O)c1-c1c(C)cc2c(C(C)C)c(O)c(O)c(C=O)c2c1O [Gossypol]
(A) 1.0

(Q) Request: O=c1c(O)c(-c2cc(O)c(O)c(O)c2)oc2cc(O)cc(O)c12 [Myricetin]
(A) 0.0

(Q) Request: O=C1c2c(O)cc(O)cc2O[C@H](c2cc(O)c(O)c(O)c2)[C@H]1O [Dihydromyricetin]
(A) 0.0

(Q) Request: O=C1Nc2ccccc2/C1=C1/Nc2ccccc2C1=O [Indirubin]
(A) 0.0
